Biological target: Keap1/Nrf2 (Homo sapiens, UniProt Q14145)
Sequence (Q16236 whole entry): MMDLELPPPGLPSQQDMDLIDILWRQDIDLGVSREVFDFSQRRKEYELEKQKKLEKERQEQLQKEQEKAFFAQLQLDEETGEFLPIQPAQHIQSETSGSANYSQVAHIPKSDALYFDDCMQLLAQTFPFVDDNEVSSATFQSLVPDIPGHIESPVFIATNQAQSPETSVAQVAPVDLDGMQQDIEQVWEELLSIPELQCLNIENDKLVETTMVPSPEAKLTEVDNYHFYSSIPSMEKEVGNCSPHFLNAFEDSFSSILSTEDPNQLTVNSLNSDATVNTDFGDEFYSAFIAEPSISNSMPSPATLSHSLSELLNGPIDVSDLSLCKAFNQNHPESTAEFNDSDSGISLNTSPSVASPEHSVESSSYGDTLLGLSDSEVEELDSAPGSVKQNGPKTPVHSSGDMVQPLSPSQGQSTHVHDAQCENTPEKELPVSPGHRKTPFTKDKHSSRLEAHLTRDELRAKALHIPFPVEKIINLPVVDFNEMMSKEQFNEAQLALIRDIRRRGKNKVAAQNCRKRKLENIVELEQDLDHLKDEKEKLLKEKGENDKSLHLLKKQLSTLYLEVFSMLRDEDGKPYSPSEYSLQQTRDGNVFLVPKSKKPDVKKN
Sequence (Q14145 whole entry): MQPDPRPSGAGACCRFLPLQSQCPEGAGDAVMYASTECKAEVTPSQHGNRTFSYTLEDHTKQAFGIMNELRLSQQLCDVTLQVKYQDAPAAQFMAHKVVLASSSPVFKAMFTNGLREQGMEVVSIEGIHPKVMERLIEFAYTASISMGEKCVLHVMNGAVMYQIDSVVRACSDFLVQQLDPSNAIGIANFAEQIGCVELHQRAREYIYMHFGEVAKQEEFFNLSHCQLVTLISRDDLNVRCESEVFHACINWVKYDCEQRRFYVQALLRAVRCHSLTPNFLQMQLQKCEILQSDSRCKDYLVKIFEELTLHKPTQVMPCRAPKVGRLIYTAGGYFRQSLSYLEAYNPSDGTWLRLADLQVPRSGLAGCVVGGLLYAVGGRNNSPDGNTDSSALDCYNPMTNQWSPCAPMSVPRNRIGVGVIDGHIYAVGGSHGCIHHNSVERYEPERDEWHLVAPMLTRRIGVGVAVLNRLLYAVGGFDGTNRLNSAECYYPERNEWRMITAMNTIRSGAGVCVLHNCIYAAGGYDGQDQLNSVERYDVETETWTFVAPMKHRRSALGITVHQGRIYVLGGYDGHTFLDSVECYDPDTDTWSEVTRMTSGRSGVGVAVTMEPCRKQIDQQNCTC
Assay: Inhibition of human Keap1-Nrf2 protein-protein interaction expressed in U2OS cells incubated for 6 hrs by cellular Keap1-Nrf2 functional assay
Format: cell-based
Endpoint Label: EC50 (nM)
One number for each entry, in nM.

IN: Look up EC50 for this molecule: CC1=NN(c2ccccc2)C(=O)/C1=C/c1ccc(OS(=O)(=O)c2ccccc2[N+](=O)[O-])cc1
OUT: 1460

----------
Biological target: Keap1/Nrf2 (Homo sapiens)
Endpoint Label: pIC50
Give bare numbers, as −log10 of the molar value.

IN: Look up pIC50 for this compound: COc1ccc(S(=O)(=O)N(Cc2nnn[nH]2)c2ccc(N(Cc3nnn[nH]3)S(=O)(=O)c3ccc(OC)cc3)c3ccccc23)cc1
OUT: 7.80
